- Measurement Protocol: physchem
- Condition Description: water

{"Compound": "CC(C)(C)C1=CC(=O)C(C(C)(C)C)=CC1=O [compound 1]", "Units Text": "µg/mL", "solubility thermodynamic at 1 week": 5.7}
